src = paper PMC5394417

Target: HA-F684A CaSR mutant (Rattus norvegicus, UniProt P48442, F684A)
Construct: mGluR5 signal peptide (N); expressed in transfected cells; host or cells: HEK293T
Sequence (P48442 20-1079 F684A): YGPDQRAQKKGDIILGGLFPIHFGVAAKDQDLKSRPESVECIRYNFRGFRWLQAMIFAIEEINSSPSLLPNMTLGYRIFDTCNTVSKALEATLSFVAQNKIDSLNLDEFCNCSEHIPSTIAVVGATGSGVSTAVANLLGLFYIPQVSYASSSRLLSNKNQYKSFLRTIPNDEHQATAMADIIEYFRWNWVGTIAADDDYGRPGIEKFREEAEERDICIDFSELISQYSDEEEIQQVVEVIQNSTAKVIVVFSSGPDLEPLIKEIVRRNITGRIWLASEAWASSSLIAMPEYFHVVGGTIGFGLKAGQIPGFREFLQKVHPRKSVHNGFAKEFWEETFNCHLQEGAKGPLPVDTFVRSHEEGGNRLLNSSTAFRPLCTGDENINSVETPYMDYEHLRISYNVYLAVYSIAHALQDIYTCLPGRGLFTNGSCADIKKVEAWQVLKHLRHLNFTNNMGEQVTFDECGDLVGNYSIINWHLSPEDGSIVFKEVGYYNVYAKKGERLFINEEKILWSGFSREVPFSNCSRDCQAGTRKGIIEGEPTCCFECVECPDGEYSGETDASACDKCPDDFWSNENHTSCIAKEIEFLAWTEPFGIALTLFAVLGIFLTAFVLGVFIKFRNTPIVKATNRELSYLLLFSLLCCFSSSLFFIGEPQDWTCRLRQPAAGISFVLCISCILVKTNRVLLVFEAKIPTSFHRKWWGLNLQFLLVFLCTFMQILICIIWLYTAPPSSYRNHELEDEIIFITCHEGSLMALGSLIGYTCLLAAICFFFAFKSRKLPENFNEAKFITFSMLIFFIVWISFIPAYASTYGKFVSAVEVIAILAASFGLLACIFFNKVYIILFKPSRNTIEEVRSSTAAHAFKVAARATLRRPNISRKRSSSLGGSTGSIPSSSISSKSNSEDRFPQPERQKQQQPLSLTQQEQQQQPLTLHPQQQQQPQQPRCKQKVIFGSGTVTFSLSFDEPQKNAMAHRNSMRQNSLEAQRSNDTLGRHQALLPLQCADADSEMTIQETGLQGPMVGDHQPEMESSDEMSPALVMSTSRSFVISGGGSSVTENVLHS
Experiment: IP-One assay, HEK293T transiently transfected
Format: cell-based
Conditions: Ca^2+ with 1 μM NPS R-568
pEC50: −log10 of the molar value.
recorded_metric: pEC50

chemical_structure=[Ca+2] assayed_target="HA-F684A CaSR mutant (Rattus norvegicus, UniProt P48442, F684A)" recorded_metric=pEC50 test_result=2.54

----------
Target: HA-E297A CaSR mutant (Rattus norvegicus, UniProt P48442, E297A)
Construct: mGluR5 signal peptide (N)
Sequence (P48442 20-1079 E297A): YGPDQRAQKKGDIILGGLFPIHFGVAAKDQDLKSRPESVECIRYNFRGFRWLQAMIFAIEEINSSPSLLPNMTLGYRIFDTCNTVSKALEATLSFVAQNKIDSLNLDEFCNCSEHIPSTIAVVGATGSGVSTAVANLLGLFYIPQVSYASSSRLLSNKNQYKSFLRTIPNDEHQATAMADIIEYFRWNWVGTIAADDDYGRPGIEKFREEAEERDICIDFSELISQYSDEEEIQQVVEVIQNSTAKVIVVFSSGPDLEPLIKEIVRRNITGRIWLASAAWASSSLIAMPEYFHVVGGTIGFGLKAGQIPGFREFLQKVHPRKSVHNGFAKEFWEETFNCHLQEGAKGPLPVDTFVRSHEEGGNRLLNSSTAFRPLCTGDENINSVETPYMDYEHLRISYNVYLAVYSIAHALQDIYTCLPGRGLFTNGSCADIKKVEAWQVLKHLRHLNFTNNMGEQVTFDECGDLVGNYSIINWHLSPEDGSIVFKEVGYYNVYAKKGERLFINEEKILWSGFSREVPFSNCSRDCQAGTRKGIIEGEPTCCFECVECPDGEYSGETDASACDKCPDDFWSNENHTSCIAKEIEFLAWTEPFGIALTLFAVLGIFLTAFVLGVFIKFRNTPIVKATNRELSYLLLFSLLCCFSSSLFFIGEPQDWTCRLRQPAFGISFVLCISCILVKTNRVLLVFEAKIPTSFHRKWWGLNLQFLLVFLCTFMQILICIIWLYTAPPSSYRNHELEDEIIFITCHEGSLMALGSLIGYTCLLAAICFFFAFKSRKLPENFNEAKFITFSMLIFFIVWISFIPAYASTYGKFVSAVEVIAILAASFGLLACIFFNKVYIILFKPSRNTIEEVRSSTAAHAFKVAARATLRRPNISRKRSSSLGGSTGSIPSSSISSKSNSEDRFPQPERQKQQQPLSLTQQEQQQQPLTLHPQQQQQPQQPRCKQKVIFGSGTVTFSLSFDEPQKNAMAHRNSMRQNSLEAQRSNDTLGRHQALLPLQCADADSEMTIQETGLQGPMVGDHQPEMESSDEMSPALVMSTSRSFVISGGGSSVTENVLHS
Experiment: IP-One assay, HEK293T transiently transfected
Conditions: Ca^2+ alone
Description: Human embryonic kidney (HEK) 293T cells were cultured in DMEM supplemented with 10% dFBS and 1% P/S at 37 °C and 5% CO2. 48 h prior to assay, transient transfection was performed using Lipofectamine 2000 as the transfection reagent. […] Functional activity was measured using the IP-One assay, which is an IP1 accumulation assay. […] The 384-well plate was incubated for 1 h at RT in dark before being measured on an EnVision plate reader (PerkinElmer, Waltham, MA, USA). […]
recorded_metric: EC50 (mM)

compound="[Ca+2] [Ca^2+]" assayed_target="HA-E297A CaSR mutant (Rattus norvegicus, UniProt P48442, E297A)" recorded_metric=EC50 test_result=7.36
